test system: M14 melanoma; test: NCI-60 one-dose screen, 48 h (100 = growth as untreated, 0 = no growth, -100 = all killed); conditions: 10 µM
About 83,000 compounds went through this panel and 20% of them were active in at least one assay; those are over-represented in the sample as a whole.
measured-metric: growth (%)
Report only the number, with the unit % understood.

Solved cases (3 shown):
>  <molecule-smiles>
O=C(OCc1ncc(-c2ccc(C(F)(F)F)cc2)c(NC2CCCCCC2)n1)c1c(F)c(F)c(F)c(F)c1F

>  <growth [%]>
43.7

$$$$
>  <molecule-smiles>
CCOc1nc(-c2ccccc2)cc2c(O)c(C(=O)NC(C)C)[nH]c(=O)c12

>  <growth [%]>
101

$$$$
>  <molecule-smiles>
COc1cc(N=C2C(=O)N(Cc3ccccc3)c3ccccc32)cc(OC)c1OC

>  <growth [%]>
98.2

$$$$

**Q:** Note growth for the compound shown: "CCCCCCCCCCCCCCCC(=O)N1CCN(C)CC1"
**A:** 80.2

**Q:** Note growth for the compound shown: "COc1cc(-c2nc(-c3nnc(-c4cccnc4)o3)c3ccccn23)cc(OC)c1OC"
**A:** 110

----------
Test system: HCC-2998 colon
Test: NCI-60 one-dose screen, 48 h (100 = growth as untreated, 0 = no growth, -100 = all killed)
Settings: 10 µM
Method: Growth inhibition of the HCC-2998 human tumor cell line is measured as a screen for anti-cancer activity. Cells are grown in 96 well plates and exposed to the test compound for 48 hours. Compounds are tested at a single concentration, which is 10^-5 M for most compounds. The reported endpoint is percent growth (GI% or GIPRCNT), where numbers from 0 - 100% represent growth inhibition, and numbers from -100% - 0 represent cell death. For example, a value of 40 represents 60% growth inhibition. […]
This is part of a sample that, as a whole, favours compounds with a hit. Of some 83,000 tested, about 20% had one in any assay.
Measured growth accompanies every entry in the list below.
Report only the number, with the unit % understood.

>  <compound>
CCOC(=O)c1c(C(F)(F)F)n([O-])c2ccc(OC)cc2[n+]1=O

>  <unit-descriptor>
%

>  <recorded-measurement>
43.8

$$$$
>  <compound>
CC(=O)Nc1nc(C)c(C(=O)N/N=C/c2cccn2C)s1

>  <unit-descriptor>
%

>  <recorded-measurement>
70.8

$$$$
>  <compound>
Cc1cccc2c(Nc3ccc(NS(C)(=O)=O)cc3)c3ccc([N+](=O)[O-])cc3nc12

>  <unit-descriptor>
%

>  <recorded-measurement>
-30.6

$$$$
>  <compound>
O=C(/C=C/c1nnc2n(Cc3ccccc3)c(=O)c3c4c(sc3n12)CCCC4)c1ccccc1

>  <unit-descriptor>
%

>  <recorded-measurement>
87.8

$$$$
>  <compound>
COc1ccccc1NC1=C(N2CCCCC2)C(=O)c2ccccc2C1=O

>  <unit-descriptor>
%

>  <recorded-measurement>
91.7

$$$$

Would you kindly look at the next entry?
**Q:** Note growth for the compound shown: "O=C1c2cc(Cl)ccc2-c2c(O)cc(Cl)cc21"
**A:** 105

----------
test system: SF-539 CNS; test: NCI-60 one-dose screen, 48 h (100 = growth as untreated, 0 = no growth, -100 = all killed); conditions: 10 µM
About 83,000 compounds went through this panel and 20% of them were active in at least one assay; those are over-represented in the sample as a whole.
Measured growth accompanies every entry in the list below.
Report only the number, with the unit % understood.

Solved cases (5 shown):
>  <compound>
CCN(CCCNC(=O)Cc1cc(=O)oc2cc(N(C)C)ccc12)CCNc1ccnc2cc(Cl)ccc12

>  <growth (%)>
25.2

$$$$
>  <compound>
O=C(/C=C/c1ccc(Cl)cc1)c1ccc(Br)cc1

>  <growth (%)>
94

$$$$
>  <compound>
CCN1CCN(c2nc(NNC(=O)c3cccc(OC)c3)nc(N3CCN(C(c4ccccc4)c4ccccc4)CC3)n2)CC1

>  <growth (%)>
71.6

$$$$
>  <compound>
COc1cc(/C=C/C(=O)c2cc(-c3ccccc3)ccc2O)cc(OC)c1OC

>  <growth (%)>
80.2

$$$$
>  <compound>
COc1ccc(C(=O)c2sc3nc(-c4cccs4)ccc3c2N)cc1OC

>  <growth (%)>
54.6

$$$$

**Q:** Note growth for the compound shown: "COc1ccc(-c2cc(/C=C3\C(=O)Nc4cc(Cl)ccc43)[nH]n2)cc1OC"
**A:** 69.1

**Q:** Note growth for the compound shown: "CCOC(=O)CSC(=S)SCC(=O)OCC"
**A:** 94.1

**Q:** Note growth for the compound shown: COc1ccc(-c2nsc3c2NC(=O)CC3c2ccc(Cl)cc2)cc1 (stereo not given)
**A:** 92.5
